# experimental.system: α-glucosidase from Saccharomyces cerevisiae
# experimental.protocol: α-glucosidase inhibitory assay (PNPG substrate)
# Type: biochemical
reported.property: α-glucosidase IC50 (mg/L)
Answers are plain numbers, in mg/L.

// below: answered compounds
1) O=C1C[C@@H](c2ccc(O)cc2)Oc2cc(O[C@@H]3O[C@H](CO)[C@@H](O)[C@H](O)[C@H]3O)cc(O)c21 [compound 9, naringenin 7-O-β-D-glucopyranoside]    44.8
2) Oc1cc(O)c2c(c1)OC1(c3ccc(O)c(O)c3)OC1C2c1c(O)cc(O)c2c1OC(c1ccc(O)c(O)c1)C(O)C2c1c(O)cc(O)c2c1OC(c1ccc(O)c(O)c1)C(O)C2 (stereo not drawn)    41.6
3) COc1ccc2c(=O)c(-c3ccc(O)cc3)coc2c1    46.3
4) COc1c(-c2ccc(O)c(O)c2)oc2cc(O)cc(O)c2c1=O    39.5
5) O=C(O)[C@H]1O[C@@H](Oc2cc(O)c3c(=O)cc(-c4ccc(O)cc4)oc3c2)[C@H](O)[C@@H](O)[C@@H]1O [compound 8, apigenin 7-O-glucoronide]    40.9

Indicate the recorded α-glucosidase IC50 value for this compound: COc1cc(O)c2c(=O)c(-c3ccc(O)cc3)coc2c1
47.6

* * *

# Tested on: α-glucosidase from Saccharomyces cerevisiae
# experimental.protocol: α-glucosidase inhibitory assay (PNPG substrate)
# Assay type: biochemical
# reported.conditions: at 50 µg/mL, highest test concentration
reported.property: α-glucosidase (% inh. at 50 µg/mL) (%)
Give bare numbers, in %.

1) COc1ccc(C(C)C(=O)c2ccc(O)cc2O)cc1 (centres unmarked)    54.1
2) C[C@H]1O[C@H](O[C@H]2[C@H](O)[C@@H](O)[C@@H](O[C@H]3[C@H](O)[C@@H](O)C(O)O[C@@H]3CO)O[C@@H]2CO)[C@H](O)[C@@H](O)[C@@H]1N[C@H]1C=C(CO)[C@@H](O)[C@H](O)[C@H]1O (some centres unmarked) [Acarbose, reference compound]    81.7
3) Oc1cc(O)c2c(c1)OC1(c3ccc(O)c(O)c3)OC1C2c1c(O)cc(O)c2c1OC(c1ccc(O)c(O)c1)C(O)C2c1c(O)cc(O)c2c1OC(c1ccc(O)c(O)c1)C(O)C2 (centres unmarked)    53.4
4) O=C1C[C@@H](c2ccc(O)cc2)Oc2cc(O[C@@H]3O[C@H](CO)[C@@H](O)[C@H](O)[C@H]3O)cc(O)c21 [compound 9, naringenin 7-O-β-D-glucopyranoside]    53.7

Kindly review the next molecule as well.
Indicate the recorded α-glucosidase (% inh. at 50 µg/mL) value for this molecule: COc1cc(O)c2c(=O)c(-c3ccc(O)cc3)coc2c1
50.6

* * *

Kindly state inhibition at 50 µg/mL for each of the entries shown.
# experimental.system: α-amylase from Bacillus licheniformis (Bacillus licheniformis, UniProt P06278)
# Sequence (P06278 30-512): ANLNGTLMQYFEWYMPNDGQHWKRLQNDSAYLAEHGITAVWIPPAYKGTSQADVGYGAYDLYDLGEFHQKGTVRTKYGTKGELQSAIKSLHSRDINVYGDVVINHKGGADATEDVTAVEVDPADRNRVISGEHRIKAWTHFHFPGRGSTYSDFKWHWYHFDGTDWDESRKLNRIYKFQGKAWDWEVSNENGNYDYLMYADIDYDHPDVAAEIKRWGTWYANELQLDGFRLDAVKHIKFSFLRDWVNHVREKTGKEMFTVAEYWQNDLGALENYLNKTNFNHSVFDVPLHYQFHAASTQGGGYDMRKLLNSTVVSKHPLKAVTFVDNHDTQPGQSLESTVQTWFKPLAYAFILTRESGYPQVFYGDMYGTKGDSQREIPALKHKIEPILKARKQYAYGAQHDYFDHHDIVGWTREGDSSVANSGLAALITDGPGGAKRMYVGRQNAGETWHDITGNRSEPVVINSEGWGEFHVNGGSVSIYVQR
# experimental.protocol: biochemical
# Assay type: biochemical
# reported.conditions: read-out: α-amylase (% inh. at 50 µg/mL)
Numbers only, in %.

// below: answered compounds
1. C[C@H]1O[C@H](O[C@H]2[C@H](O)[C@@H](O)[C@@H](O[C@H]3[C@H](O)[C@@H](O)C(O)O[C@@H]3CO)O[C@@H]2CO)[C@H](O)[C@@H](O)[C@@H]1N[C@H]1C=C(CO)[C@@H](O)[C@H](O)[C@H]1O (stereo partly drawn) [Acarbose, reference compound]    72.5
2. O=C(O)[C@H]1O[C@@H](Oc2cc(O)c3c(=O)cc(-c4ccc(O)cc4)oc3c2)[C@H](O)[C@@H](O)[C@@H]1O [compound 8, apigenin 7-O-glucoronide]    50.9

Consider the following items and state reported inhibition at 50 µg/mL for each.
1. COc1cc(O)c2c(=O)c(-c3ccc(O)cc3)coc2c1
2. COc1cc2c(=O)oc3c(OC)c(OC4OC(COC5OC(C)C(OC(C)=O)C(OC(C)=O)C5OC(C)=O)C(OC(C)=O)C(OC(C)=O)C4OC(C)=O)cc4c(=O)oc(c1OC)c2c34 (stereo not drawn)
3. COc1c(-c2ccc(O)c(O)c2)oc2cc(O)cc(O)c2c1=O
4. O=C1C[C@@H](c2ccc(O)cc2)Oc2cc(O[C@@H]3O[C@H](CO)[C@@H](O)[C@H](O)[C@H]3O)cc(O)c21 [compound 9, naringenin 7-O-β-D-glucopyranoside]
5. C[C@H]1C(=O)CC[C@@H]2[C@]1(C)CC[C@H]1[C@@]2(C)CC[C@@]2(C)[C@@H]3CC(C)(C)CC[C@]3(C)CC[C@]12C
6. C=C(C)[C@@H]1CC[C@]2(CO)CC[C@]3(C)[C@H](CC[C@@H]4[C@@]5(C)CC[C@H](O)C(C)(C)[C@@H]5CC[C@]43C)[C@@H]12
7. COc1ccc(C(C)C(=O)c2ccc(O)cc2O)cc1 (stereo not drawn)

[32.2, 43.5, 50.2, 50.5, 21.5, 19.3, 33.7]
